target: S1P5 receptors (Homo sapiens); test: [35S]-GTPγS binding assay with CHO-S1P5 receptor membranes; details: membranes of CHO cells expressing recombinant S1P5 receptors; measure of S1P5 agonism
Sequence (Q9H228 whole entry): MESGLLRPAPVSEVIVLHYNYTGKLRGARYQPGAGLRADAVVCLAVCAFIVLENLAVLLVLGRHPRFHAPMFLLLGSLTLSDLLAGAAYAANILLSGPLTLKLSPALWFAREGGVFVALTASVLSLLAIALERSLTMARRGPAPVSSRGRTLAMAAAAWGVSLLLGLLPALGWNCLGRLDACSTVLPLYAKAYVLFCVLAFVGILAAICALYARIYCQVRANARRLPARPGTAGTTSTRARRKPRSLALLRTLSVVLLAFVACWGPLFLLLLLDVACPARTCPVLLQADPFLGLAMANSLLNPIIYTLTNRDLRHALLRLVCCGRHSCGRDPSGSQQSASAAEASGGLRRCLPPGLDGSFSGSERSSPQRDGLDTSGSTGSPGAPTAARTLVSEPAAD
pEC50: −log10 of the molar value.
What pEC50 was measured for each of the following?

Worked set:
>>> df
                                   molecule                   targetentity  valuetype  recordedvalue
0  O=C(O)C1CCN(Cc2ccc(C3CN(c4ccc(C5CC5)c(Cl)c4)C3)cc2)CC1 [Compound 42]  S1P5 receptors (Homo sapiens)      pEC50   6.00 to 7.00
1  O=C(O)C1CCN(C2CCc3cc(C4CN(c5c(Cl)cccc5Cl)C4)cc(F)c32)CC1 (racemic) [Compound 6]  S1P5 receptors (Homo sapiens)      pEC50         ≥ 8.00

Each molecule below has a recorded value; state its pEC50.
1. O=C(O)C1CCN(Cc2ccc(N3CC(c4c(F)cccc4F)C3)cc2)CC1 [Compound 27]
2. Cc1cc(C2CN(c3ccc(C4CC4)c(Cl)c3)C2)cc(C)c1CN1CCC(C(=O)O)CC1 [Compound 49]
3. Cc1cc(C2CN(c3c(C)cccc3F)C2)cc(C)c1CN1CCC(C(=O)O)CC1 [Compound 66]
4. Cc1cc(C2CN(c3c(Cl)cccc3Cl)C2)cnc1CN1CCC(C(=O)O)CC1 [Compound 76]
5. Cc1cc(C2CN(c3c(C)cccc3Cl)C2)cc(C)c1CN1CCC(C(=O)O)CC1 [Compound 67]

-- reply
6.00 to 7.00
6.00 to 7.00
≥ 8.00
7.00 to 8.00
≥ 8.00

-- ask Return reported pEC50; argument: Cc1cc(CN2CCC(C(=O)O)CC2)cc(C)c1C1CN(c2c(Cl)cccc2Cl)C1 [Compound 20]
-- reply ≥ 8.00
